Ref: patent US20250129078A1

target-entity: EGFR WT (Homo sapiens (Human), UniProt P00533)
Sequence (P00533 25-1210): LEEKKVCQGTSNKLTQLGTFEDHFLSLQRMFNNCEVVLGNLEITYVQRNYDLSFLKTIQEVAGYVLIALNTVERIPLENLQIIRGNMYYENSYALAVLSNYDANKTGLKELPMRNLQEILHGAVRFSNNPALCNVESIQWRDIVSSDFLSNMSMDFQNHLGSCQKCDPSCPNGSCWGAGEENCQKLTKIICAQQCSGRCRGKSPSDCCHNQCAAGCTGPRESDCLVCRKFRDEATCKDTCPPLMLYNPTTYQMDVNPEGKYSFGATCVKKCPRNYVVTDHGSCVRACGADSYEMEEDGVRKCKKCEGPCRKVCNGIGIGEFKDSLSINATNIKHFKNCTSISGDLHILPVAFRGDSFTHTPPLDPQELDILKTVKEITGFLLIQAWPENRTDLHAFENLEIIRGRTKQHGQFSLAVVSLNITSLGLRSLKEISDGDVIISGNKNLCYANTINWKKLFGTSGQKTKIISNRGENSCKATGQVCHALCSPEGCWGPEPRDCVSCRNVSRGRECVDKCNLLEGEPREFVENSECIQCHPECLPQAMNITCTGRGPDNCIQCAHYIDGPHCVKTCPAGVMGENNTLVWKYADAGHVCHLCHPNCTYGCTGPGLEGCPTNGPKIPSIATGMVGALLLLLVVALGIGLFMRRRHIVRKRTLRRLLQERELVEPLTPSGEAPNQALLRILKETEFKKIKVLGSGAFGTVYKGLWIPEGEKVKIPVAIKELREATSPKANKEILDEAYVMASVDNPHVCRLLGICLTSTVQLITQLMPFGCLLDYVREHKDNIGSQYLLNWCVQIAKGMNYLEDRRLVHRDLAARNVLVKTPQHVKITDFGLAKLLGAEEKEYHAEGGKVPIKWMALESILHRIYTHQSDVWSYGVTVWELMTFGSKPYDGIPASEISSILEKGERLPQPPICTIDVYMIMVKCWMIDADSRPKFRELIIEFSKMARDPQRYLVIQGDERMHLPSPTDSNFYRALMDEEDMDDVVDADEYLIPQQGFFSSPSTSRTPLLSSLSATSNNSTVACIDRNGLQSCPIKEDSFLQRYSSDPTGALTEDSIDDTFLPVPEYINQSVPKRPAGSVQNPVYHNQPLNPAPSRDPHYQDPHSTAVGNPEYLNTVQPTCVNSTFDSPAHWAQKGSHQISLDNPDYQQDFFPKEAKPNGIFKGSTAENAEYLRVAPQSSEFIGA
pIC50: −log10 of the molar value.
Measured pIC50, listed per entry for reference.

[
  {
    "structure-notation": "C=CC(=O)N1CCN(c2ncc3ncnc(Nc4ccc(Oc5ccc6c(c5)nnn6C(F)(F)F)c(C)c4)c3n2)C[C@H]1C",
    "pIC50": "6.30 to 7.00"
  },
  {
    "structure-notation": "C=CC(=O)N1CCN(c2ncc3ncnc(Nc4ccc(Oc5ccc6c(c5)ncn6C(F)F)c(C)c4F)c3n2)CC1",
    "pIC50": "> 7.30"
  },
  {
    "structure-notation": "C=CC(=O)N1CCN(c2ccc3ncnc(Nc4c(OC)cc(Oc5ccc6c(c5)nnn6C)c(C)c4F)c3n2)CC1",
    "pIC50": "6.30 to 7.00"
  },
  {
    "structure-notation": "C=CC(=O)N1CCN(c2ncc3ncnc(Nc4ccc(Oc5cc6nnn(C)c6c(F)c5C)c(C)c4)c3n2)C[C@H]1C",
    "pIC50": "≤ 6.00"
  }
]

###

pIC50: −log10 of the molar value. Counter-ions that a name gives are not always drawn.
Entries with reported pIC50 on EGFR WT (Homo sapiens (Human), UniProt P00533)
measured-quantity: pIC50

[
  {
    "compound": "C=CC(=O)N1CC2(C1)CN(c1ncc3ncnc(Nc4ccc(Oc5ccc6c(c5)nnn6C)c(C)c4F)c3n1)C2 [Compound 23]",
    "reading": "≤ 6.00"
  },
  {
    "compound": "C=CC(=O)N[C@H]1CN(c2ccc3ncnc(Nc4ccc(Oc5ccc6c(c5)nnn6C)c(C)c4)c3n2)CC(F)(F)C1 [Compound 342]",
    "reading": "6.00 to 6.30"
  },
  {
    "compound": "C=CC(=O)N1CC=C(c2ccc3ncnc(Nc4ccc(Oc5ccc6c(c5)nnn6C)c(C)c4)c3n2)CC1 [Compound 109, trifluoroacetate]",
    "reading": "6.30 to 7.00"
  },
  {
    "compound": "C=CC(=O)N1CCN(c2ccc3ncnc(Nc4cc(F)c(Oc5ccc6c(c5)nnn6C)c(C)c4F)c3n2)C[C@H]1C [Compound 326]",
    "reading": "6.30 to 7.00"
  },
  {
    "compound": "C=CC(=O)N1CCN(c2ccc3ncnc(Nc4c(OC)cc(Oc5ccc6c(c5)nnn6C)c(C)c4F)c3n2)C[C@H]1C [Compound 256]",
    "reading": "6.30 to 7.00"
  },
  {
    "compound": "C=CC(=O)N1CCN(c2ncc3ncnc(Nc4ccc(Oc5cnc6c(c5)ncn6C)c(C)c4F)c3n2)CC1 [Compound 118]",
    "reading": "> 7.30"
  },
  {
    "compound": "C=CC(=O)N1CCC(Oc2ncc3ncnc(Nc4ccc(Oc5cc(F)c6c(c5)nnn6C)c(C)c4)c3n2)CC1 [Compound 106]",
    "reading": "> 7.30"
  }
]

###

target-entity: EGFR WT (Homo sapiens (Human), UniProt P00533)
experiment-notes: ErbB enzyme assay (CisBio HTRF-KinEASE-TK), EGFR WT
Assay type: biochemical
condition-summary: ATP at Km (25 μM), 1 h incubation
Structures can show the parent of a compound that is named as a salt.

[
  {
    "compound": "C=CC(=O)N1C2COCC1CC(c1ccc3ncnc(Nc4ccc(Oc5ccc6c(c5)nnn6C)c(C)c4)c3n1)C2 (centres unmarked)",
    "IC50": "100 to 500 nM"
  },
  {
    "compound": "C=CC(=O)N1CCN(c2ncc3ncnc(Nc4ccc(Oc5ccc6c(c5)nnn6C)c(Cl)c4F)c3n2)CC1",
    "IC50": "< 50 nM"
  },
  {
    "compound": "Cc1cc(Nc2ncnc3cnc(N4CCN(C(=O)/C=C/Cn5cccn5)CC4)nc23)ccc1Oc1ccc2c(c1)nnn2C",
    "IC50": "≥ 1000 nM"
  },
  {
    "compound": "C=CC(=O)N1CCN(c2ccc3ncnc(Nc4cc(F)c(Oc5ccc6c(c5)nnn6C)c(C)c4F)c3n2)CC1(C)C",
    "IC50": "100 to 500 nM"
  },
  {
    "compound": "C=CC(=O)N1CC2CC1CN2c1ccc2ncnc(Nc3ccc(Oc4ccc5c(c4)nnn5C)c(C)c3)c2n1 (centres unmarked)",
    "IC50": "< 50 nM"
  },
  {
    "compound": "C=CC(=O)N1C2C=C(c3ccc4ncnc(Nc5ccc(Oc6ccc7c(c6)nnn7C)c(C)c5)c4n3)CC1COC2 (centres unmarked) [Compound 408, trifluoroacetate]",
    "IC50": "100 to 500 nM"
  },
  {
    "compound": "C=CC(=O)N1C2CCC1CN(c1ncc3ncnc(Nc4cc(C)c(Oc5ccc6c(c5)ncn6C(F)F)cc4OC)c3n1)C2 [Compound 40, 2,2,2-trifluoroacetate]",
    "IC50": "500 to 1000 nM"
  },
  {
    "compound": "C=CC(=O)N1CCN(c2ncc3ncnc(Nc4ccc(Oc5cc6nnn(C)c6cc5F)c(C)c4)c3n2)CC1",
    "IC50": "100 to 500 nM"
  },
  {
    "compound": "C=CC(=O)N[C@]1(C)CCN(c2ncc3ncnc(Nc4ccc(Oc5ccc6c(c5)nnn6C)c(C)c4)c3n2)C1",
    "IC50": "< 50 nM"
  },
  {
    "compound": "C=CC(=O)N1CCCN(c2ccc3ncnc(Nc4ccc(Oc5ccc6c(c5)nnn6C)c(C)c4)c3n2)C[C@@H]1C",
    "IC50": "≥ 1000 nM"
  },
  {
    "compound": "C=CC(=O)N1CCN(c2ncc3ncnc(Nc4ccc(Oc5cnc6c(c5)ncn6C(F)F)c(C)c4F)c3n2)C[C@H]1C",
    "IC50": "< 50 nM"
  },
  {
    "compound": "C=CC(=O)N1CCN(c2ncc3ncnc(Nc4ccc(Oc5ccc6c(c5)nnn6C)c(F)c4F)c3n2)CC1",
    "IC50": "50 to 100 nM"
  },
  {
    "compound": "C=CC(=O)N1CCN(c2ccc3ncnc(Nc4ccc(Oc5ccc6c(c5)nnn6C)c(C)c4F)c3n2)C[C@@H]1C1CC1",
    "IC50": "≥ 1000 nM"
  },
  {
    "compound": "C=CC(=O)N1CCCN(c2ccc3ncnc(Nc4ccc(Oc5ccc6c(c5)nnn6C)c(C)c4)c3n2)C[C@H]1C",
    "IC50": "≥ 1000 nM"
  }
]

###

target-entity: ErbB2 V777L (Homo sapiens (Human), UniProt P04626, V777L)
Sequence (P04626 23-1255 V777L): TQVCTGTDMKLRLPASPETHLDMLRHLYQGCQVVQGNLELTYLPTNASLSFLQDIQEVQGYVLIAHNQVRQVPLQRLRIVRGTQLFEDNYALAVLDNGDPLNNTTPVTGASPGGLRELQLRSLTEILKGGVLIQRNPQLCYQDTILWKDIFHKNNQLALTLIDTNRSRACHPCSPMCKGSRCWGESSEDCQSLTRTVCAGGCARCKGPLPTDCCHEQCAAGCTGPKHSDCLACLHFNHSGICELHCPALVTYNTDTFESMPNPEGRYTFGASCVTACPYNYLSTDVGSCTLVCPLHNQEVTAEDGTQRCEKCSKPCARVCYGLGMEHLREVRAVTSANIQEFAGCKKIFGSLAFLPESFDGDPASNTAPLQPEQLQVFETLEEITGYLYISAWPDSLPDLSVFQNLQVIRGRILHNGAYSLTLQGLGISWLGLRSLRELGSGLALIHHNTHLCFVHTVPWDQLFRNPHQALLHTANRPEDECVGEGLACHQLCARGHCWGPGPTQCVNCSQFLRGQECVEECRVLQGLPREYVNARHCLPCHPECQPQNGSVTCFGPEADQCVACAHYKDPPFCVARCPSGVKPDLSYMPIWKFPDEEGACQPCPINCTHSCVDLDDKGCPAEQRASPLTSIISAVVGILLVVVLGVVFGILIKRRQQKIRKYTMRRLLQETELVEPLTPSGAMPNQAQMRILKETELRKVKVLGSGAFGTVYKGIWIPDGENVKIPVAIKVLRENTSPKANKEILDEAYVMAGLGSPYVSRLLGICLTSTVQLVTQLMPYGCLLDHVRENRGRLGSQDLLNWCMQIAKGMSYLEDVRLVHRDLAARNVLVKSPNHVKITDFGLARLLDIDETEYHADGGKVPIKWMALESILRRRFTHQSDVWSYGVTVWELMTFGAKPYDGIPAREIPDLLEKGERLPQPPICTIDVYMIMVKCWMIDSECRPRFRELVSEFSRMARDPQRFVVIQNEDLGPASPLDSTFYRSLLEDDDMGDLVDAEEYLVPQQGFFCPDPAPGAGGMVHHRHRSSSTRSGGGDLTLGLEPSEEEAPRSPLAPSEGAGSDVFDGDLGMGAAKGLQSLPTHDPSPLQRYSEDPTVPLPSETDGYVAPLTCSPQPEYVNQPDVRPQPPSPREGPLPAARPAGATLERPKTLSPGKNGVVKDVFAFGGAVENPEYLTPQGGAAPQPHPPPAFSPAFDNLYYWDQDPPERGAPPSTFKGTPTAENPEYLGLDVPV
experiment-notes: ErbB enzyme assay (CisBio HTRF-KinEASE-TK), ErbB2 V777L
Assay type: biochemical
pIC50: −log10 of the molar value.
measured-quantity: pIC50

[
  {
    "structure-notation": "C=CC(=O)N1CCN(c2ccc3ncnc(Nc4ccc(Oc5ccc6c(c5)nnn6C)c(C)c4)c3n2)C[C@H]1C(C)C",
    "measured-quantity": "pIC50",
    "reading": "7.00 to 7.30"
  },
  {
    "structure-notation": "C=CC(=O)N1CCN(c2ncc3ncnc(Nc4ccc(Oc5ccc6c(c5)nnn6C)c(C)c4)c3n2)C[C@@H]1CC",
    "measured-quantity": "pIC50",
    "reading": "6.00 to 6.30"
  },
  {
    "structure-notation": "C=CC(=O)N1CCN(c2ncc3ncnc(Nc4cc(C)c(Oc5ccc6c(c5)nnn6C)c(F)c4)c3n2)C[C@H]1C",
    "measured-quantity": "pIC50",
    "reading": "6.30 to 7.00"
  },
  {
    "structure-notation": "C=CC(=O)N1CC[C@H](N(C)c2ccc3ncnc(Nc4ccc(Oc5ccc6c(c5)nnn6C)c(C)c4)c3n2)[C@@H]1C",
    "measured-quantity": "pIC50",
    "reading": "6.30 to 7.00"
  },
  {
    "structure-notation": "C=CC(=O)N1CCN(c2ncc3ncnc(Nc4ccc(Oc5ccc6c(c5)nnn6C)c(C)c4)c3n2)[C@H](C)C1",
    "measured-quantity": "pIC50",
    "reading": "6.30 to 7.00"
  },
  {
    "structure-notation": "C=CC(=O)NC1(C(F)(F)F)CCN(c2ccc3ncnc(Nc4ccc(Oc5ccc6c(c5)nnn6C)c(C)c4F)c3n2)CC1",
    "measured-quantity": "pIC50",
    "reading": "6.30 to 7.00"
  },
  {
    "structure-notation": "C=CC(=O)N1CCN(c2ncc3ncnc(Nc4ccc(Oc5ccc6c(c5)nnn6CC)c(C)c4)c3n2)CC1",
    "measured-quantity": "pIC50",
    "reading": "6.30 to 7.00"
  }
]

###

target-entity: ErbB2 mutant L755S (Homo sapiens (Human), UniProt P04626, L755S)
Sequence (P04626 23-1255 L755S): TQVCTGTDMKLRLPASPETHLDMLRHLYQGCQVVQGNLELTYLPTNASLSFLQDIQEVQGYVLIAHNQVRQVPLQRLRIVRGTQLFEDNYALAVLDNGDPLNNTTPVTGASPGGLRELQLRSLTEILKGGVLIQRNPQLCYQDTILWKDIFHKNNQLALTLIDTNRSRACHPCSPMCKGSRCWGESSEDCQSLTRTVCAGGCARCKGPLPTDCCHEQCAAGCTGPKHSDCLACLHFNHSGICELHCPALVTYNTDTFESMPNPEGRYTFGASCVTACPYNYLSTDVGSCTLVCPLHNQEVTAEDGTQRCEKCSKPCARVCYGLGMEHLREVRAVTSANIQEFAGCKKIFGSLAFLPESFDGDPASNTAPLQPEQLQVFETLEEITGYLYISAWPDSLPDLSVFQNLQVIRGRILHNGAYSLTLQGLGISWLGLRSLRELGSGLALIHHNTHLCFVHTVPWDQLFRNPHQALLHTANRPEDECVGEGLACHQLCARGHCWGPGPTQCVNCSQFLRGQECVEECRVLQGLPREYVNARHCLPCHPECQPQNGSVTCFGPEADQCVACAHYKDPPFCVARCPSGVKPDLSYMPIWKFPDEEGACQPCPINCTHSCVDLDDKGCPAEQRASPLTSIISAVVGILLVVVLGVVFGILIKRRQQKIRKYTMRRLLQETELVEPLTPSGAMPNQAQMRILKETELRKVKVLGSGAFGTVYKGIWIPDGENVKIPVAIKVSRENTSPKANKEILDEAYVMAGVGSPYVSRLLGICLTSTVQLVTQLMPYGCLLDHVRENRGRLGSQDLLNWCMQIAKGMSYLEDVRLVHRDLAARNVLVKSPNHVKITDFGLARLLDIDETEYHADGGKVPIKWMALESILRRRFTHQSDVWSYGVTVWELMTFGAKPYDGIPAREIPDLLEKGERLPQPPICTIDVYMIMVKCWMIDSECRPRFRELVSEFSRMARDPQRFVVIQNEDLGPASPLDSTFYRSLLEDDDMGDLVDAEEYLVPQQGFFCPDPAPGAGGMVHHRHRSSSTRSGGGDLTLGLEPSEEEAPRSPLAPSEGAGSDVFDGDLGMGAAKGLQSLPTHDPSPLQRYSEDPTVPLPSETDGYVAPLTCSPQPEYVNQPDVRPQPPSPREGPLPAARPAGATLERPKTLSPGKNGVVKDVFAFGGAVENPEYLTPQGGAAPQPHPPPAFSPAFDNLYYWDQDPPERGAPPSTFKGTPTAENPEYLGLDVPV
experiment-notes: ErbB cellular phosphorylation assay (phospho-ErbB2 ELISA), HEK-293 cells expressing ErbB2 L755S
condition-summary: 1 h treatment
pIC50: −log10 of the molar value.
Measured pIC50, listed per entry for reference.

[
  {
    "structure-notation": "C=CC(=O)N1CCN(c2ncc3ncnc(Nc4ccc(Oc5cc(F)c6c(c5)nnn6C)c(C)c4F)c3n2)CC1",
    "pIC50": "> 7.00"
  },
  {
    "structure-notation": "C=CC(=O)N1CCN(c2ncc3ncnc(Nc4ccc(Oc5ccc6c(c5)nnn6C)c(C)c4)c3n2)CC1(C)C",
    "pIC50": "6.30 to 7.00"
  },
  {
    "structure-notation": "C=CC(=O)N1C2CC1CN(c1ccc3ncnc(Nc4ccc(Oc5ccc6c(c5)nnn6C)c(C)c4)c3n1)C2",
    "pIC50": "> 7.00"
  }
]
